Molecular target: Melanin-concentrating hormone receptor 2 (Homo sapiens, UniProt Q969V1)
Sequence (Q969V1 whole entry): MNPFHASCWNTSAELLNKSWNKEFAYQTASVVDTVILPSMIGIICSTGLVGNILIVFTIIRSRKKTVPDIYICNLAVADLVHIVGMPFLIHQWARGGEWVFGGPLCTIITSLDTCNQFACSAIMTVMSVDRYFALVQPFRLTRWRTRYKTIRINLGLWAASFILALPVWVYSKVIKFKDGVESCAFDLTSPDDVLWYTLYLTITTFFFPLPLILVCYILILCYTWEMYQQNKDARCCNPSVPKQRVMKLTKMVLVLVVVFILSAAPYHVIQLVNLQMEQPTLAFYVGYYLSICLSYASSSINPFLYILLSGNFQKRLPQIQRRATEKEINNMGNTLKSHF
Assay: Binding affinity against human Melanin-concentrating hormone receptor 2 stably transfected CHO cells was determined using [125I]MCH as radioligand
Format: cell-based
Field: IC50. Provide a value for each of the compounds that follow.

Give the reported value of IC50 for this record: COc1cc(NC(=O)Nc2cccc(Oc3ccccc3)c2)ccc1C(=O)NCCCN1CCOCC1
> 100 µM

Give the reported value of IC50 for this record: CCN(CC)CCNC(=O)c1ccc(NC(=O)Nc2ccc(OC(F)(F)F)cc2)cc1OC
> 100 µM

Give the reported value of IC50 for this record: COc1cc(NC(=O)c2ccc(-c3ccccc3)cc2)ccc1C(=O)NCCN(C)C
> 100 µM

----------
Molecular target: Melanin-concentrating hormone receptor 1 (Homo sapiens)
Sequence (Q99705 whole entry): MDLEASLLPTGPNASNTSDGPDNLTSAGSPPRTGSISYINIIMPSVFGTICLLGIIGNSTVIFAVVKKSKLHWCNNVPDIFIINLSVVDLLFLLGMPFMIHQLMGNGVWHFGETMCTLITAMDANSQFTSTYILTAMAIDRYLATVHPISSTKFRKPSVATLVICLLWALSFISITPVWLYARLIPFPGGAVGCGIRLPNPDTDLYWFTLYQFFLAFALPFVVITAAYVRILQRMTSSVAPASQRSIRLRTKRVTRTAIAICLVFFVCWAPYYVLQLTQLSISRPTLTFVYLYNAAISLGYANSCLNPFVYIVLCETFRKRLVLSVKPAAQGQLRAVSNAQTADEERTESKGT
Assay: Binding affinity against human Melanin-concentrating hormone receptor 1 stably transfected CHO cells was determined using scintillation proximity assay (SPA)
Assay type: cell-based
Readout Kind: pIC50
Hey, just a heads up that pIC50 is the negative log base 10 of the concentration in molar.

Give the reported value of pIC50 for this record: CCN(CC)CCNC(=O)c1ccc(NC(=O)Nc2ccc(C#N)cc2)cc1OC
5.49

Give the reported value of pIC50 for this record: CCN(CC)CCNC(=O)c1ccc(NC(=O)Nc2cc(Cl)cc(Cl)c2)cc1OC
5.32

Give the reported value of pIC50 for this record: CCN(CC)CCNC(=O)c1ccc(NC(=O)Nc2ccc(OC(F)(F)F)cc2Br)cc1OC
5.06

Give the reported value of pIC50 for this record: CCN(CC)CCNC(=O)c1ccc(NC(=O)Nc2ccc(SC)cc2)cc1OC
6.02

Give the reported value of pIC50 for this record: COc1cc(NC(=O)Nc2ccc(-c3ccccc3)cc2)ccc1C(=O)NCCCN(C)C
5.04

Give the reported value of pIC50 for this record: CCN(CC)CCNC(=O)c1ccc(NC(=O)N(C)c2ccc(Oc3ccccc3)cc2)cc1OC
5.24

Give the reported value of pIC50 for this record: CCN(CC)CCNC(=O)c1ccc(NC(=O)Nc2ccc(Oc3ccccc3)cc2)cc1
5.46

Give the reported value of pIC50 for this record: CCN(CC)CCNC(=O)c1ccc(NC(=O)Nc2ccc(F)c(Cl)c2)cc1OC
5.41

----------
Molecular target: UniProt Q99705
Experiment: Binding affinity against human Melanin-concentrating hormone receptor 1 stably transfected CHO cells was determined using scintillation proximity assay (SPA)
Assay type: cell-based
pIC50: −log10 of the molar value.
Readout Kind: pIC50

Give the reported value of pIC50 for this record: CCN(CC)CCNC(=O)c1ccc(N(C)C(=O)N(C)c2ccc(Oc3ccccc3)cc2)cc1OC
< 4.00

Give the reported value of pIC50 for this record: CCN(CC)CCN(C)C(=O)c1ccc(NC(=O)Nc2ccc(Oc3ccccc3)cc2)cc1OC
< 4.00

Give the reported value of pIC50 for this record: CCN(CC)CCNC(=O)c1cc(Cl)c(NC(=O)Nc2ccc(Oc3ccccc3)cc2)cc1OC
< 4.00
